All figures here come from paper PMC13266984.

# measured target: Human ALDH3A1 (Homo sapiens)
# test details: ALDH3A1 biochemical assay (benzaldehyde/NADP+, diaphorase-resazurin readout, 1,536-well)
What log10 AC50 was measured for each of the following?
Units before log transform: µM; reported quantity: AC50; transform: log10.

Value of measured log10 AC50 for the entry O=C(NCc1cccc(N2CCC[S+]2(=O)[O-])c1)c1csc(N2CCN(c3cccc(C(F)(F)F)c3)CC2)n1 [NCGC01407948-01] : -0.20

Value of measured log10 AC50 for the entry O=C(NCc1ccc(N2CCNC2=O)cc1)c1csc(N2CCN(c3cccc(C(F)(F)F)c3)CC2)n1 [NCGC01407779-01] : -0.10

Value of measured log10 AC50 for the entry O=C(NCc1cccc(CC(F)(F)F)c1)c1csc(N2CCN(c3cccc(C(F)(F)F)c3)CC2)n1 [NCGC01407930-01] : -1.95

Value of measured log10 AC50 for the entry COC(=O)c1ccc(N2CCN(c3nc(C(=O)NCc4cccc(C)c4)cs3)CC2)cc1 [NCGC01211115-01] : 0.11

Value of measured log10 AC50 for the entry COc1cccc(N2CCN(c3nc(C(=O)NCc4ccco4)cs3)CC2)c1 [Compound 3] : 1.10

Value of measured log10 AC50 for the entry CNCc1cn(C[C@H]2O[C@@H](CC(=O)NCc3ccc(F)cc3)[C@H](O)[C@@H]2O)nn1 [NCGC00400077-01] : 1.60

Value of measured log10 AC50 for the entry COCC(=O)Nc1ncncc1-c1noc([C@@H]2CCCN2Cc2cc(OC)c(OC)c(OC)c2)n1 [NCGC00394846-01] : 1.20

Value of measured log10 AC50 for the entry O=C(NCc1ccc(Oc2ccc(F)cc2)cc1)c1csc(N2CCN(c3cccc(C(F)(F)F)c3)CC2)n1 [NCGC01407922-01] : -0.40

Value of measured log10 AC50 for the entry Cc1cccc(CNC(=O)c2csc(N3CCN(c4ccc(C(F)(F)F)cc4)CC3)n2)c1 [Compound 7] : -0.49

Value of measured log10 AC50 for the entry O=C(NCc1ccncc1)c1csc(N2CCN(c3ccccc3F)CC2)n1 [NCGC00430720-01] : 1.20

Value of measured log10 AC50 for the entry Cc1cccc(CNC(=O)c2csc(N3CCN(c4ccc(C5(C#N)CCCCC5)cc4)CC3)n2)c1 [NCGC01210611-01] : -0.14

Value of measured log10 AC50 for the entry Cc1cccc(CNC(=O)c2csc(N3CCN(c4cccc(O)c4)CC3)n2)c1 [NCGC01211119-01] : 0.41

Value of measured log10 AC50 for the entry COC(=O)c1ccc2nc(CO[C@H]3CN(C4CCOCC4)C[C@H]3F)[nH]c2c1 [NCGC00392980-01] : -0.74

Value of measured log10 AC50 for the entry Cc1cccc(CNC(=O)c2csc(N3CCN(c4ccc(Br)cc4)CC3)n2)c1 [NCGC01211165-01] : -0.09

Value of measured log10 AC50 for the entry Cc1ccc(CNC(=O)c2csc(N3CCN(c4cccc(C(F)(F)F)c4)CC3)n2)cc1F [NCGC01407934-01] : -1.55

Value of measured log10 AC50 for the entry Cc1cccc(CNC(=O)c2csc(N3CCN(c4cccc(Br)c4)CC3)n2)c1 [Compound 10] : -0.39

Value of measured log10 AC50 for the entry COc1cccc(N2CCN(c3nc(C(=O)NCc4cccnc4)cs3)CC2)c1 [NCGC00430684-01] : 1.15

Value of measured log10 AC50 for the entry Cc1nn(-c2ccc(C(F)(F)F)cc2)c(C)c1[C@@H]1C=C[C@@H](NCc2ccc(N(C)C)cc2)C1 [NCGC00392637-01] : 1.10

Value of measured log10 AC50 for the entry COc1ccc(NC2CCCN(C(=O)c3cn(CCCN)nn3)C2)cc1 (stereo not shown) [NCGC00439852-01] : -0.05

Value of measured log10 AC50 for the entry C[S+](=O)([O-])c1ccc(CNC(=O)c2csc(N3CCN(c4cccc(C(F)(F)F)c4)CC3)n2)cc1 [NCGC01407818-01] : -0.35

Value of measured log10 AC50 for the entry COc1cc(F)ccc1-c1cc(C(=O)NCCC(N)=O)c2c(c1)N(C)CCO2 [NCGC00417040-01] : 1.30

Value of measured log10 AC50 for the entry O=C(NCc1ccc2c(c1)C(=O)NCC2)c1csc(N2CCN(c3cccc(C(F)(F)F)c3)CC2)n1 [NCGC01397286-01] : -0.35

Value of measured log10 AC50 for the entry CN(C)CC1(O)CCN(C(=O)Cn2cc(C(=O)C3CC3)c3ccccc32)C1 (stereo not shown) [NCGC00438461-01] : 1.55

Value of measured log10 AC50 for the entry Cc1cccc(COc2ccc(CNC(=O)c3csc(N4CCN(c5cccc(C(F)(F)F)c5)CC4)n3)cc2)c1 [NCGC01407816-01] : -0.70

Value of measured log10 AC50 for the entry O=C(NCc1ccc(Cl)cc1)c1cc2n(n1)CC(c1ccc3c(c1)OCO3)OC2 (stereo not shown) [NCGC00450299-01] : 1.00

Value of measured log10 AC50 for the entry Cc1cccc(CNC(=O)c2csc(N3CCN(c4cc(F)cc(F)c4)CC3)n2)c1 [NCGC01211133-01] : -0.19

Value of measured log10 AC50 for the entry COc1ccc(-n2nc(C)c([C@@H]3C=C[C@@H](NCc4cccc(Cl)c4)C3)c2C)cc1 [NCGC00391691-01] : 1.35

Value of measured log10 AC50 for the entry COc1ccc(N2CCN(c3nc(C(=O)NCc4ccc(F)cc4F)cs3)CC2)cc1 [NCGC00430664-01] : 0.65

Value of measured log10 AC50 for the entry Cc1cc(=O)[nH]c(N2CCC(NC(=O)NCc3ccco3)CC2)n1 [NCGC00530028-01] : 1.30

Value of measured log10 AC50 for the entry N#Cc1cccc(CNC(=O)c2csc(N3CCN(c4cccc(C(F)(F)F)c4)CC3)n2)c1 [NCGC01397393-01] : -2.66

Value of measured log10 AC50 for the entry Cc1ccc(-c2cccc(CNC(=O)c3csc(N4CCN(c5cccc(C(F)(F)F)c5)CC4)n3)c2)cc1 [Compound 19] : -1.63

====

# measured target: OE19 (3A1) (Homo sapiens)
# Sequence (P30838 whole entry): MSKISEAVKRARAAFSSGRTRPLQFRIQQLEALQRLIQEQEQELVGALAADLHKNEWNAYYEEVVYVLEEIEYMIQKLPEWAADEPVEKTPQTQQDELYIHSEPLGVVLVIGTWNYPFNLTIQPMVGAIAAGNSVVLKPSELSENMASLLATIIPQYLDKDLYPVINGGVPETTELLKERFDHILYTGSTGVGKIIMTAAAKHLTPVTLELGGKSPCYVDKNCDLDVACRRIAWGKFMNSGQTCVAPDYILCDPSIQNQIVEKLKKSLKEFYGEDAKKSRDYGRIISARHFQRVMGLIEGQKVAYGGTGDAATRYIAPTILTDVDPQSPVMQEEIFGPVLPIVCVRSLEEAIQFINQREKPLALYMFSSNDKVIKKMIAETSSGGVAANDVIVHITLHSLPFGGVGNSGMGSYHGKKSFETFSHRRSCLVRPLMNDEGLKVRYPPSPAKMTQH
# test details: Cellular ALDEFLUOR assay in OE19 cells (preferential ALDH3A1 expression)
# test conditions: Table S4, OE19 cells
Label Met when Cell_Efficacy is strictly below -90; at or above that, label Not met.

Quick check: does CCc1ccc(N2CCN(c3nc(C(=O)NCc4cccc(C)c4)cs3)CC2)cc1Cl have Cell_Efficacy under -90?
Met

Quick check: does COc1ccccc1N1CCN(c2nc(C(=O)NCc3cccc(C)c3)cs2)CC1 have Cell_Efficacy under -90?
Met

Quick check: does Cc1cccc(CNC(=O)c2csc(N3CCN(Cc4cccc(C)c4)CC3)n2)c1 have Cell_Efficacy under -90?
Met

Quick check: does Cc1cccc(CNC(=O)c2csc(N3CCN(c4ccc(O)cc4)CC3)n2)c1 have Cell_Efficacy under -90?
Not met

Quick check: does Cc1cccc(CNC(=O)c2csc(N3CCN(c4cccc(Br)c4)CC3)n2)c1 have Cell_Efficacy under -90?
Not met

Quick check: does Cc1cccc(CNC(=O)c2csc(N3CCN(c4cccc(OC(F)(F)F)c4)CC3)n2)c1 have Cell_Efficacy under -90?
Met

Quick check: does Cc1cccc(CNC(=O)c2csc(N3CCN(c4cncc(Br)c4)CC3)n2)c1 have Cell_Efficacy under -90?
Not met

Quick check: does Cc1cccc(CNC(=O)c2csc(N3CCN(c4cccc(F)c4)CC3)n2)c1 have Cell_Efficacy under -90?
Not met

Quick check: does Cc1cccc(CNC(=O)c2csc(N3CCN(c4c(F)cccc4F)CC3)n2)c1 have Cell_Efficacy under -90?
Met

Quick check: does Cc1cccc(CNC(=O)c2csc(N3CCN(c4cccc(C(F)(F)F)c4)CC3)n2)c1 have Cell_Efficacy under -90?
Met

Quick check: does Cc1cccc(CNC(=O)c2csc(N3CCN(c4ccc(C5(C#N)CCCC5)cc4)CC3)n2)c1 have Cell_Efficacy under -90?
Met

Quick check: does COC(=O)c1ccc(N2CCN(c3nc(C(=O)NCc4cccc(C)c4)cs3)CC2)cc1 have Cell_Efficacy under -90?
Not met

Quick check: does Cc1cccc(CNC(=O)c2csc(N3CCN(c4ccc(N5CCOCC5)cc4)CC3)n2)c1 have Cell_Efficacy under -90?
Met

Quick check: does COc1cc(N2CCN(c3nc(C(=O)NCc4cccc(C)c4)cs3)CC2)ccc1F have Cell_Efficacy under -90?
Not met

====

# measured target: Human ALDH3A1 (Homo sapiens, UniProt P30838)
# Sequence (P30838 whole entry): as above
# test details: ALDH3A1 biochemical assay (benzaldehyde/NADP+, diaphorase-resazurin readout, 1,536-well)
# test conditions: Table S4, biochemical
quantity name: Efficacy

Value of measured Efficacy for the entry Cc1cccc(CNC(=O)c2csc(N3CCN(c4ccc(C5(C#N)CC5)cc4)CC3)n2)c1 : -66.81

Value of measured Efficacy for the entry Cc1cccc(CNC(=O)c2csc(N3CCN(c4cccc(C#N)c4)CC3)n2)c1 : -83.70

Value of measured Efficacy for the entry Cc1cccc(CNC(=O)c2csc(N3CCN(c4ccc(C#N)cc4)CC3)n2)c1 : -61.92

Value of measured Efficacy for the entry Cc1cccc(CNC(=O)c2csc(N3CCN(c4cccc([N+](=O)[O-])c4)CC3)n2)c1 : -84.72
